pKi: −log10 of the molar value.
Literature survey of pKi (system: Alkaline phosphatase, tissue-nonspecific isozyme (Bos taurus)).
Note: every record was labeled by where its pKi sits among range A: < 5; range B: ≥ 5 and < 6; range C: ≥ 6

Solved entries (count: 4):
[[record]]
compound = "O=c1c(C2Nc3ccccc3S(=O)(=O)N2)coc2ccc(F)cc12 (stereo not given)"
target_or_test_system = "Alkaline phosphatase, tissue-nonspecific isozyme (Bos taurus)"
qualitative_label = "range A"

[[record]]
compound = "CCOC1Oc2ccc(CC)cc2C(=O)/C1=C\\Nc1ccccc1S(N)(=O)=O (stereo not given)"
target_or_test_system = "Alkaline phosphatase, tissue-nonspecific isozyme (Bos taurus)"
qualitative_label = "range A"

[[record]]
compound = "NS(=O)(=O)c1cccc(NS(=O)(=O)c2ccc(F)cc2)c1"
target_or_test_system = "Alkaline phosphatase, tissue-nonspecific isozyme (Bos taurus)"
qualitative_label = "range C"

[[record]]
compound = "CCOC1Oc2ccc(Br)cc2C(=O)/C1=C/Nc1ccc(S(=O)(=O)Nc2ccccn2)cc1 (stereo not given)"
target_or_test_system = "Alkaline phosphatase, tissue-nonspecific isozyme (Bos taurus)"
qualitative_label = "range A"


(Q) Which category fits this record: CCCCOC1Oc2ccccc2C(=O)/C1=C\Nc1cccc(S(N)(=O)=O)c1 (racemic)
(A) range A

(Q) Textbook exercise: identify the category of the compound given here, COC1Oc2ccc(F)cc2C(=O)/C1=C\Nc1cccc(S(N)(=O)=O)c1 (racemic) , according to its measured value.
(A) range C

(Q) Using the reported pKi, which band applies to COC1Oc2ccc(C)cc2C(=O)/C1=C\Nc1ccc(S(N)(=O)=O)cc1 (racemic) ?
(A) range B

(Q) Looking at `c1ccc([C@H]2CN3CCSC3=N2)cc1` , which class would you pick?
(A) range B

(Q) Please classify: `CCOc1ccc(NS(=O)(=O)c2ccc(C)cc2)cc1`
(A) range C

====

- Target or test system: Alkaline phosphatase, tissue-nonspecific isozyme (Bos taurus)
- Sequence (P09487 whole entry): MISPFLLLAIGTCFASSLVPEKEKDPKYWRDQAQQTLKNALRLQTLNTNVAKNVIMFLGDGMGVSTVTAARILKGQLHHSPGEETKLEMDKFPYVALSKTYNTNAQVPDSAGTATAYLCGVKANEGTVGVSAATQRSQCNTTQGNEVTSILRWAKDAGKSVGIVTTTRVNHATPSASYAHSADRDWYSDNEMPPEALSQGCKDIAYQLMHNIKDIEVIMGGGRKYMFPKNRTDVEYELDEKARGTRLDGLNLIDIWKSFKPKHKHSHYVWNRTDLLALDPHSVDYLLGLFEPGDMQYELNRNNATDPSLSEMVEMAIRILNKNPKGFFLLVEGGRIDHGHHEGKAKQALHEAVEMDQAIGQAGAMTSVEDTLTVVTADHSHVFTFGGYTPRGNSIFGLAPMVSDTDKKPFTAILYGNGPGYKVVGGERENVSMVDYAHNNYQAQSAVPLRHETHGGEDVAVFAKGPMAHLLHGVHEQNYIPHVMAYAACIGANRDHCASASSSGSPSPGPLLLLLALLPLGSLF
Listing of Ki toward Alkaline phosphatase, tissue-nonspecific isozyme (Bos taurus), each taken from a published source.
API: value field is a number in µM; no unit string.

Consider the reported Ki for these molecules:
[[record]]
molecule = "NS(=O)(=O)c1ccc(CNC(=O)c2ccc(F)cc2)cc1"
unit_of_measurement = "µM"
measured = 0.299

[[record]]
molecule = "NS(=O)(=O)c1ccc(NC(=O)c2ccc(F)cc2)cc1"
unit_of_measurement = "µM"
measured = 25.1

[[record]]
molecule = "COC1Oc2c(Cl)cc(Cl)cc2C(=O)/C1=C\\Nc1ccc(S(N)(=O)=O)cc1 (racemic)"
unit_of_measurement = "µM"
measured = 6.19


// sample CCOC1Oc2ccc(F)cc2C(=O)/C1=C\Nc1ccc(S(N)(=O)=O)cc1 (stereo not given) , its Ki was 220

====

Here we gather log10(Ki) data for Alkaline phosphatase, tissue-nonspecific isozyme (Bos taurus, UniProt P09487) reported by several publications.
- Target or test system: Alkaline phosphatase, tissue-nonspecific isozyme (Bos taurus, UniProt P09487)
- Sequence (P09487 whole entry): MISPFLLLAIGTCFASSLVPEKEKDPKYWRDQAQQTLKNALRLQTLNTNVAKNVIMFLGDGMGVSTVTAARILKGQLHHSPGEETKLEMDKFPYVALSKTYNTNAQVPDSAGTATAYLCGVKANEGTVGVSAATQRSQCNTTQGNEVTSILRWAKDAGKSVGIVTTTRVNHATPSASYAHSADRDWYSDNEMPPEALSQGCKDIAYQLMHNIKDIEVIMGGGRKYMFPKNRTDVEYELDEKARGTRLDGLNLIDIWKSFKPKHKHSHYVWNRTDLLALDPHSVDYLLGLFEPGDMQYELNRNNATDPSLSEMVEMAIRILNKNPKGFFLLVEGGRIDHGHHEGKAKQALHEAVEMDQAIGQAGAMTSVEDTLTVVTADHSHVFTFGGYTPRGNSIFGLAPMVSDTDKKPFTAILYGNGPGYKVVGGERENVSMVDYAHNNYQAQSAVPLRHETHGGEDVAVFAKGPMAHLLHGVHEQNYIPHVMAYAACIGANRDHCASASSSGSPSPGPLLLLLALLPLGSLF
The figures below represent log10 of Ki, where Ki is stated in µM.

Field: example entries. Status: answers known.
[[record]]
compound = "COC1Oc2ccc(F)cc2C(=O)/C1=C\\Nc1ccccc1S(N)(=O)=O (racemic)"
target_or_test_system = "Alkaline phosphatase, tissue-nonspecific isozyme (Bos taurus, UniProt P09487)"
measured = 0.86

[[record]]
compound = "CCOC1Oc2ccc(Br)cc2C(=O)/C1=C\\Nc1cccc(S(N)(=O)=O)c1 (stereo not given)"
target_or_test_system = "Alkaline phosphatase, tissue-nonspecific isozyme (Bos taurus, UniProt P09487)"
measured = 1.64

[[record]]
compound = "Cc1ccc(S(=O)(=O)Nc2ccc(S(N)(=O)=O)cc2)cc1"
target_or_test_system = "Alkaline phosphatase, tissue-nonspecific isozyme (Bos taurus, UniProt P09487)"
measured = 1.96

[[record]]
compound = "Cc1ccc(S(=O)(=O)NCc2ccc(S(N)(=O)=O)cc2)cc1"
target_or_test_system = "Alkaline phosphatase, tissue-nonspecific isozyme (Bos taurus, UniProt P09487)"
measured = -1.30

[[record]]
compound = "O=c1c(C2Nc3ccccc3S(=O)(=O)N2)coc2ccc(Br)cc12 (stereo not given)"
target_or_test_system = "Alkaline phosphatase, tissue-nonspecific isozyme (Bos taurus, UniProt P09487)"
measured = -0.89

[[record]]
compound = "CCOC1Oc2c(Br)cc(Br)cc2C(=O)/C1=C\\Nc1ccc(S(N)(=O)=O)cc1 (stereo not given)"
target_or_test_system = "Alkaline phosphatase, tissue-nonspecific isozyme (Bos taurus, UniProt P09487)"
measured = 1.80


Turning now to a further record.
Looking up CCOC1Oc2ccccc2C(=O)/C1=C\Nc1cccc(S(N)(=O)=O)c1 (stereo not given) , I see its log10(Ki) listed as 1.61
